TARGET OR TEST SYSTEM: human androgen receptor (Homo sapiens, UniProt P10275)
Sequence (P10275 whole entry): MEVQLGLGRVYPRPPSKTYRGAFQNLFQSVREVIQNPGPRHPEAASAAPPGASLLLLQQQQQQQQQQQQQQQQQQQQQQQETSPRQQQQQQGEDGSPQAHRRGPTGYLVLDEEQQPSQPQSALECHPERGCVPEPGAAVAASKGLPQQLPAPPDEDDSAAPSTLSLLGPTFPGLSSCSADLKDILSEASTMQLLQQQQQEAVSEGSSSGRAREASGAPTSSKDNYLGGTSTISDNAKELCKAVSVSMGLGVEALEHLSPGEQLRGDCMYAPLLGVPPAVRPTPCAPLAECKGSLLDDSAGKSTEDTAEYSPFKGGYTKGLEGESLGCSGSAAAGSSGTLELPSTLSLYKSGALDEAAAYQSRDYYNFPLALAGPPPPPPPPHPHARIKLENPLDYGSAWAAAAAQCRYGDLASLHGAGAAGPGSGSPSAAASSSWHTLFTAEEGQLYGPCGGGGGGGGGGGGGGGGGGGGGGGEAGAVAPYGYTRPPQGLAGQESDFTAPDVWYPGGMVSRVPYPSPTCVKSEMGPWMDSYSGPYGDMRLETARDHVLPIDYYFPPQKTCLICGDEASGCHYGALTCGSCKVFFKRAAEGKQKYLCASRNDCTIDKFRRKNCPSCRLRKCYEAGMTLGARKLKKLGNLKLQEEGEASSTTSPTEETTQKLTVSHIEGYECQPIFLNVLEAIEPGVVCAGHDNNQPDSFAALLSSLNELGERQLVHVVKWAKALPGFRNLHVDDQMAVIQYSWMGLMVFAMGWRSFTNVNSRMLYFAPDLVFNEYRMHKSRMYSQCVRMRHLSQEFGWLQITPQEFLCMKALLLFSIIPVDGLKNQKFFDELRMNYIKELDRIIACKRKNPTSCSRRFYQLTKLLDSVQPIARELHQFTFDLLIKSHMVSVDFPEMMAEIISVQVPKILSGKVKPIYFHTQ
TEST NAME: Androgen receptor reporter gene assay for antagonistic effects (inhibition of DHT-induced transcriptional activity, HeLa cells)
EXPERIMENTAL READOUT: IC50
Reply with a number, then the unit it belongs to.

Exercise: Which IC50 value belongs to CN(C)C(=O)CCCOc1cc(O)cc(CCC[C@@H]2C[C@H]3CC(=O)CC[C@]3(C)[C@H]3CC[C@]4(C)[C@@H](O)CC[C@H]4[C@H]23)c1 [Compound from Example 3] ?
Key: 392 nM

# credit: patent US7018993B2
